Answer each item with its documented pKi.
As a rule, pKi stands for the negative log10 of the concentration, concentration in M.

Provide the documented pKi with UniProt:P28223 as the system for N#Cc1ccc2cnn(CCCCN3CCC(c4noc5cc(F)ccc45)CC3)c2c1
8.69

Provide the documented pKi with UniProt:P28223 as the system for N#Cc1ccc2ccn(CCCCN3CCC(c4noc5cc(F)ccc45)CC3)c2c1
8.71

Provide the documented pKi with UniProt:P28223 as the system for Fc1ccc2c(C3CCN(CCCCn4ccc5ccccc54)CC3)noc2c1
8.95

###

For 5-HT2A receptor (Homo sapiens, UniProt P28223), measured IC50 is reported for the entries below.

// lookup IC50 for N#Cc1ccc2ccn(CCCCN3CCC(c4noc5cc(F)ccc45)CC3)c2c1 [II-9]
2.92 nM

// lookup IC50 for N#Cc1ccc2cnn(CCCCN3CCC(c4noc5cc(F)ccc45)CC3)c2c1 [II-14]
3.09 nM

// lookup IC50 for Fc1ccc2c(C3CCN(CCCCn4ccc5ccc(F)cc54)CC3)noc2c1 [II-8]
5.33 nM

###

- Tested on: mice
- test: Sedative effects in mice (spontaneous activities)
- Assay type: in vivo
- Set-up: unit not given here
- run conditions: single dose 20 mg/kg
Answer each item with its documented Sedative effect.
Enter a number only.

// lookup Sedative effect for N#Cc1ccc2cnn(CCCCN3CCC(c4noc5cc(F)ccc45)CC3)c2c1
20

// lookup Sedative effect for Fc1ccc2c(C3CCN(CCCCn4ccc5ccccc54)CC3)noc2c1
35

###

Answer each item with its documented Percentage increase in pain threshold.
- Tested on: Kunming mice
- test: Hot-plate test in mice
- Assay type: in vivo
- run conditions: 10 mg/kg S.c., 1 h post dose
Marks after values point to notes of the source that are not given here.

// lookup Percentage increase in pain threshold for N#Cc1ccc2ccn(CCCCN3CCC(c4noc5cc(F)ccc45)CC3)c2c1
97.98* %

// lookup Percentage increase in pain threshold for Fc1ccc2c(C3CCN(CCCCn4ccc5ccccc54)CC3)noc2c1
95.48* %

// lookup Percentage increase in pain threshold for Fc1ccc2c(C3CCN(CCCCn4cnc5ccc(F)cc54)CC3)noc2c1
92.55* %

###

Answer each item with its documented Sedative effect.
- System: mice
- test: Sedative effects in mice (spontaneous activities)
- Format: in vivo
- Parameters: unit not given here
- run conditions: single dose 20 mg/kg
Marks after values point to notes of the source that are not given here.

// lookup Sedative effect for N#Cc1ccc2ncn(CCCCN3CCC(c4noc5cc(F)ccc45)CC3)c2c1
52*

// lookup Sedative effect for Fc1ccc2c(C3CCN(CCCOn4nnc5ccc(Cl)cc54)CC3)noc2c1
70.8*

// lookup Sedative effect for Fc1ccc2c(C3CCN(CCn4ccc5ccccc54)CC3)noc2c1
43*
